ASSAY SYSTEM: APOL1 (tet-inducible transgenic APOL1 T-REx-HEK293 cell lines) (Homo sapiens, UniProt O14791)
Sequence (O14791 whole entry S342G/I384M, form open): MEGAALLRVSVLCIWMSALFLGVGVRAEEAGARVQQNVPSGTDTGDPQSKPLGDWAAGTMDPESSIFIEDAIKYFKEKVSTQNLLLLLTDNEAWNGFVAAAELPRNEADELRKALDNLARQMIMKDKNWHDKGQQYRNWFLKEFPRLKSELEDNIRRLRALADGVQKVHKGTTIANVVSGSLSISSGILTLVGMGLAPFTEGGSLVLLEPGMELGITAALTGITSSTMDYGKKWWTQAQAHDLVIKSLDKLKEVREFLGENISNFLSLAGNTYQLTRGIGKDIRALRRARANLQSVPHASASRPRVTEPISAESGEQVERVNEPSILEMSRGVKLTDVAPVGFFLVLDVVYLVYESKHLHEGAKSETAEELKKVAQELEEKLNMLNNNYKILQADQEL
EXPERIMENTAL DETAILS: MultiTox-Fluor Multiplex Cytotoxicity Assay for APOL1 inhibitor properties
Assay type: cell-based
TEST CONDITIONS: APOL1 induced with 50 ng/mL tet, 24 hours with compound, ratio of dead to live cells, top concentration 10 μM; APOL1 variant (G0/G1/G2) not stated; read-out: IP50 (nM) (i.e., IC50 for cell proliferation)
PROPERTY LABEL: IC50

[
  {
    "COMPOUND": "C[C@H]1C[C@@](O)(c2ccc3c(c2)OC(F)(F)C3(F)F)C[C@@H](c2cn(C)nn2)N1 [Compound 40]",
    "IC50": "≤ 50 nM"
  },
  {
    "COMPOUND": "Cc1cc([C@@]2(O)C[C@@H](c3cn(C)nn3)N[C@@H](C)C2)ccc1F [Compound 12]",
    "IC50": "50 to 500 nM"
  },
  {
    "COMPOUND": "C[C@H]1C[C@@](O)(c2ccc3cnn(C)c3c2)C[C@@H](c2cn(C)nn2)N1 [Compound 58]",
    "IC50": "≤ 50 nM"
  },
  {
    "COMPOUND": "C[C@H]1C[C@@](O)(C2CCCCC2)C[C@@H](c2cn(C)nn2)N1 [Compound 60]",
    "IC50": "≥ 500 nM"
  },
  {
    "COMPOUND": "C[C@@H]1C[C@](O)(c2cccc(Cl)c2)C[C@H](C)N1 [Compound 1]",
    "IC50": "≥ 500 nM"
  }
]

# per-item lookup of IC50; items listed below
1. C[C@H]1C[C@@](O)(Cc2cccc(C(F)(F)F)c2)C[C@@H](c2cn(C)nn2)N1 [Compound 61]
2. COc1cc([C@]2(O)C[C@H](C)N(C)[C@H](c3cn(C)nn3)C2)ccc1C(F)(F)F [Compound 42]
3. C[C@H]1C[C@@](O)(c2ccc(C(F)(F)F)c(OC(F)(F)F)c2)C[C@@H](c2cn(C)nn2)N1 [Compound 50]

1. ≥ 500 nM
2. 50 to 500 nM
3. ≤ 50 nM

---

Exercise: for every item that follows, state its recorded IC50.
ASSAY SYSTEM: APOL1 (tet-inducible transgenic APOL1 T-REx-HEK293 cell lines) (Homo sapiens, UniProt O14791)
EXPERIMENTAL DETAILS: MultiTox-Fluor Multiplex Cytotoxicity Assay for APOL1 inhibitor properties
Type: cell-based
TEST CONDITIONS: APOL1 induced with 50 ng/mL tet, 24 hours with compound, ratio of dead to live cells, top concentration 10 μM; APOL1 variant (G0/G1/G2) not stated; read-out: IP50 (nM) (i.e., IC50 for cell proliferation)
Protocol: The MultiTox-Fluor Multiplex Cytotoxicity Assay is a single-reagent-addition, homogeneous, fluorescence assay that measures the number of live and dead cells simultaneously in culture wells. […] The live-cell protease activity is restricted to intact viable cells and is measured using a fluorogenic, cell-permeant peptide glycyl-phenylalanylamino fluorocoumarin (GF-AFC) substrate. […] Assay ready plates from the Global Compound Archive were ordered using template 384_APOL1Cell_DR10n2_50 uM_v3. […]

Example cases with answers are listed next.
[
  {
    "COMPOUND": "C[C@H]1C[C@@](O)(c2cc(F)cc(Cl)c2)C[C@@H](c2cn(C)nn2)N1 [Compound 10]",
    "IC50": "50 to 500 nM"
  },
  {
    "COMPOUND": "C[C@H]1C[C@@](O)(c2ccc(C(F)(F)F)c(O)c2)C[C@@H](c2cn(C)nn2)N1 [Compound 43]",
    "IC50": "≤ 50 nM"
  },
  {
    "COMPOUND": "COc1cc([C@@]2(O)C[C@@H](c3cn(C)nn3)N[C@@H](C)C2)ccc1Cl [Compound 19]",
    "IC50": "≤ 50 nM"
  },
  {
    "COMPOUND": "Cc1cccc([C@@]2(O)C[C@@H](c3cn(C)nn3)N[C@@H](C)C2)c1 [Compound 6]",
    "IC50": "50 to 500 nM"
  }
]

Respectfully, I request IC50 for each entry included below.
1. Cc1ccc([C@@]2(O)C[C@@H](c3cn(C)nn3)N[C@@H](C)C2)cc1 [Compound 5]
2. C[C@H]1C[C@@](O)(c2ccc(Cl)cc2)C[C@@H](c2cn(C)nn2)N1 [Compound 4]
3. C[C@H]1C[C@@](O)(c2ccc(SC3CC3)cc2)C[C@@H](c2cn(C)nn2)N1 [Compound 49]
4. C[C@H]1C[C@@](O)(c2ccc(C(F)(F)C(F)(F)F)cc2)C[C@@H](c2cn(C)nn2)N1 [Compound 47]

1: 50 to 500 nM; 2: ≤ 50 nM; 3: 50 to 500 nM; 4: ≤ 50 nM
